So I've got a bunch of sequences here, and I need their shrunken log2 fold change values.
System: Escherichia coli TOP10;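 note: peptides expressed intracellularly from a pBAD plasmid library in pooled LB shake-flask culture, induced with 0.3% L-arabinose, DNA abundance read by NGS, three biological replicates, DESeq2 with apeglm shrinkage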
Experiment: shrunken log2 fold change of peptide-encoding DNA abundance (4.5 h post-induction vs induction); higher = less antimicrobial activity (less host growth inhibition)
Conditions: time post-induction: 4.5 h; library: site-saturation at positions 5, 18, 19, 20
Give bare numbers.

| Residue String | shrunken log2 fold change |
| --- | --- |
| RRIRWRPPRLPRPRPRPGEDPRP | 0.381 |
| RRIRARPPRLPRPRPRPPKIPRP | 0.327 |

Here is another sequence to look at.
Can you share its shrunken log2 fold change? I mean this sequence: RRIRRRPPRLPRPRPRPFHYPRP
-0.259
